- target.system: Transient receptor potential cation channel subfamily A member 1 (Homo sapiens, UniProt O75762)
- Sequence (O75762 whole entry): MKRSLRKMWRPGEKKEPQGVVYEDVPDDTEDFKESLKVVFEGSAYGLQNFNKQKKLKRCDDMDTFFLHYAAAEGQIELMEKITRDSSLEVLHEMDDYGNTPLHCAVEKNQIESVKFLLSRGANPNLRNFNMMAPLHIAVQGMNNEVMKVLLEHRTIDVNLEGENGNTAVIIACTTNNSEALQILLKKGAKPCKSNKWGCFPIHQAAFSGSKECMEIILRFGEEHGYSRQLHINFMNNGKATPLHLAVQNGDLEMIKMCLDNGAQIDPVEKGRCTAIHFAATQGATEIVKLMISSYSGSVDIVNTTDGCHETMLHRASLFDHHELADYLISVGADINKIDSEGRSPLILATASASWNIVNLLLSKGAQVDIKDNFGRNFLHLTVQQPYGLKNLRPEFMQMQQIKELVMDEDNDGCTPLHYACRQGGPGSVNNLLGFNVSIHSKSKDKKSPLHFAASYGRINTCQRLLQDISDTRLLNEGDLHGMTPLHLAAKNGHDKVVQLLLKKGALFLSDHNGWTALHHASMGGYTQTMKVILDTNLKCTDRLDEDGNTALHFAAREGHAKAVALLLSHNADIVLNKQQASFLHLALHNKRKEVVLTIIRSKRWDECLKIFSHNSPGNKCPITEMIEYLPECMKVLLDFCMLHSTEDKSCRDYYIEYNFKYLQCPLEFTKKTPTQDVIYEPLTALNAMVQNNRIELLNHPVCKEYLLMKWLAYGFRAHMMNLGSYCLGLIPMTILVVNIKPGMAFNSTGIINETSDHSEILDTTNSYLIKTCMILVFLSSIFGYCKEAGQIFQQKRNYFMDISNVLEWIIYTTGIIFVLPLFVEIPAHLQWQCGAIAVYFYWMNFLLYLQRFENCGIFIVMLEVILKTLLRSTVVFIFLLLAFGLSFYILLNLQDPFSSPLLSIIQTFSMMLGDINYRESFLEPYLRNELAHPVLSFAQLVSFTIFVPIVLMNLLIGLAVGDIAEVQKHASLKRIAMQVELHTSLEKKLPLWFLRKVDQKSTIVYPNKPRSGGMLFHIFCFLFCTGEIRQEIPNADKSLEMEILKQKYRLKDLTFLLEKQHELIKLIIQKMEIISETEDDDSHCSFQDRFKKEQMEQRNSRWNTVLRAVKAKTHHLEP
- assay.protocol: Dose Response Assay: Compound plates were resuspended with 100 ul of HBSS/20 mM HEPES/0.005% BSA buffer (Compound Buffer): column 1A-H: buffer/DMSO (bk); column 2A-H: AP-18 (control antagonist for CHOK1 TRPA1 cells); column 1I-P: ATP (control for CHOK1 teton cells); column 2 I-P: 2APB (control antagonist for CHOK1/TRPM8 cells). Growth media was removed from the cell plates (20 ul) and 20 ul of the Replacement Buffer was added followed by addition of 25 ul of diluted dye. All three steps were performed using a Plate Washer BioTek 407. The plates were then incubated for 30' at RT. After incubation, both the cell and compound plates were brought to the FLIPR and 20 ul of the diluted compounds/antagonist/bk were transferred to the cell plates by the FLIPR. Plates were then incubated for 30' at room temperature. After 30' incubation, plates were returned to the FLIPR and 20 ul of 4.5× Cinnamaldehyde was added to the cell plates. During the compound addition as well as agonist addition, fluorescence readings were taken simultaneously from all 384 wells of the cell plate every 1.5 seconds. Five readings were taken to establish a stable baseline, then 20 ul of sample was rapidly (30 ul/sec) and simultaneously added to each well of the cell plate. The fluorescence was continuously monitored before, during and after sample/agonist addition for a total elapsed time of 100 seconds (compound addition) and 120 seconds (agonist addition).
observed.property: pIC50
Worth noting: pIC50 values are minus log10 of concentrations stated in mol/L.

**Query** Given the entry CN(CC(=O)NCC1CN(c2ccc(C(F)(F)F)cc2)CCO1)S(=O)(=O)c1ccc(F)cc1 (stereo unspecified) , report its measured pIC50.
**Result** 5.82
